Attribute: Efficacy (%)
test system: Xanthomonas orycea; assay: Comparison of SDHI fungicides on Xanthomonas orycea / rice / preventative (bacterial blight of rice); type: in vivo; settings: rice cv. Balilla, preventative spray, 6 Mg ai/L, 14 days incubation
// return numeric value only (unit: %, not printed)

1) CC(C)c1ccc(Cl)cc1CN(C(=O)c1c(C(F)F)nn(C)c1F)C1CC1 = 0
2) Cn1cc(C(=O)Nc2ccccc2-c2cc(F)c(F)c(F)c2)c(C(F)F)n1 = 0
3) O=C(Nc1ccccc1-c1ccc(Cl)cc1)c1cccnc1Cl = 0

The record that follows has no Efficacy (%) shown yet.
Look up Xanthomonas orycea data: Efficacy (%) of CON(C(=O)c1cn(C)nc1C(F)F)C(C)Cc1c(Cl)cc(Cl)cc1Cl (stereo not shown) , then report it.
13
